FYI, the data here is from patent US20120040951A1.

# target: V599E Raf (Homo sapiens, UniProt P15056, V600E)
# Sequence (P15056 whole entry V600E): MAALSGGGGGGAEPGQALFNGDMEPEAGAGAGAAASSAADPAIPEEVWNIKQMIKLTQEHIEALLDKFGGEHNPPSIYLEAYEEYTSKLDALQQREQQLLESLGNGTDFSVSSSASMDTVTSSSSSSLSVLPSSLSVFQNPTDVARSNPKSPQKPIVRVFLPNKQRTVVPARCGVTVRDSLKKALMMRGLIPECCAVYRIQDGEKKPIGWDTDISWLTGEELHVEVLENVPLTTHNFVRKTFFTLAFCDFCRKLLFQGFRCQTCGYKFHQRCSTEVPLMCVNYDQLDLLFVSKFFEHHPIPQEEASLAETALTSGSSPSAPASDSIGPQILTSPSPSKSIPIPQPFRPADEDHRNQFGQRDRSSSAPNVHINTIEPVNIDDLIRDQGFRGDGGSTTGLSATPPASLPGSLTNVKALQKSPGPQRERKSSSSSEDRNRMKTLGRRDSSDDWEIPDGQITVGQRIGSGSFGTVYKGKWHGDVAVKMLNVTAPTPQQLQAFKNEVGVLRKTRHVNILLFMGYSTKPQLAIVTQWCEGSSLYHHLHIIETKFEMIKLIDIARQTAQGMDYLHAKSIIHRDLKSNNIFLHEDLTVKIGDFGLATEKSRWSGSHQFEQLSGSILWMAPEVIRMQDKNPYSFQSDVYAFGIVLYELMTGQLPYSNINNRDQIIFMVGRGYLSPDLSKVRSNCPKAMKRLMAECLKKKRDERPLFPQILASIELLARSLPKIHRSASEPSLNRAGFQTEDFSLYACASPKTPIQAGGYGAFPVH
# test description: Biochemical FRET assay, mutant Raf (phosphorylation of MEK)
# measurement context: 0.125 nM V599E Raf, 100 nM biotin-MEK, 25 μM ATP, read-out: Raf (mut) inhibition
# Experimental: (1) Biochemical FRET Assay […] Inhibitors were diluted 4-fold in 100% DMSO and added to a final concentration of 10 μM to 40 μM to a solution containing 100 nM biotin-MEK, 0.125 nM V599E Raf in 50 mM HEPES, pH 7.4, 60 mM NaCl, 3 mM MgCl2, 2 mM DTT, 0.25 mM MnCl2, 0.01% BSA, and 0.01% Tween-20 and incubated for 20 minutes at room temperature. The kinase reaction was started by the addition of 25 μM ATP to a final volume of 45 μl and allowed to progress for 60 minutes. […]
pIC50: −log10 of the molar value.
measure name: pIC50

# annotated cases, reported pIC50 shown
                                   molecule                                    target        result
0  CCc1nc(C(C)(C)C)ncc1Nc1ncc(C(C)NC(=O)c2cc3c(cn2)ncn3C)s1 (stereo not shown) [Example 295]  V599E Raf (Homo sapiens, UniProt P15056, V600E)  6.00 to 7.00
1  C[C@@H](NC(=O)c1ccc2sccc2c1)c1ncc(C(=O)Nc2cc(C(F)(F)F)c(Cl)cn2)s1 [Example 67]  V599E Raf (Homo sapiens, UniProt P15056, V600E)  6.00 to 7.00
2  CC(=O)N1CC(n2cnc3cnc(C(=O)N[C@H](C)c4cnc(Nc5ccc(C(F)(F)F)cc5)s4)cc32)C1 [Example 347]  V599E Raf (Homo sapiens, UniProt P15056, V600E)        ≥ 7.00
3  COc1cc(C(F)(F)F)ccc1Nc1ncc(C(C)NC(=O)c2cc3c(cn2)ncn3C)s1 (stereo not shown) [Example 244]  V599E Raf (Homo sapiens, UniProt P15056, V600E)        ≥ 7.00
4  CC(NC(=O)c1cc2c(cn1)ncn2C)c1cnc(Nc2cc(C(N)=O)cc(C(C)(C)C)c2)s1 (stereo not shown) [Example 353]  V599E Raf (Homo sapiens, UniProt P15056, V600E)        ≥ 7.00
5  CC(NC(=O)c1cnc2ncccn12)c1cnc(Nc2ccc(C(F)(F)F)cc2)s1 (stereo not shown) [Example 310]  V599E Raf (Homo sapiens, UniProt P15056, V600E)        ≥ 7.00

Could you now look at the following molecule, please?
Noted for C[C@@H](NC(=O)c1cc2c(cn1)ncn2C)c1cnc(Nc2ccc(C(F)(F)F)cc2)cn1 (single isomer, unassigned) [Example 37] : its pIC50 reads ≥ 7.00

====

Catalogue of compounds with associated pEC50
# Test system: phospho-ERK in melanoma derived WM-266-4 cells
# test description: Mechanistic cellular assay for Raf kinase activity (phospho-ERK, Bio-Plex)
# Assay type: cell-based
# measurement context: Homo sapiens, treated 1-2 hr at 37° C., serum free medium, read-out: pERK EC50
pEC50: −log10 of the molar value.

See these solved cases before continuing.
In [3]: df
Out[3]:
                                   compound  measure_name        result
0  C[C@@H](NC(=O)c1cnc2n1CCNC2)c1ncc(C(=O)Nc2cc(C(F)(F)F)c(Cl)cn2)s1         pEC50  6.00 to 7.00
1  CC(NC(=O)c1cc2c(cn1)ncn2C)c1cnc(Nc2cc(C(F)(F)F)ccn2)s1 (stereo not shown)         pEC50  5.00 to 6.00
2  C[C@@H](NC(=O)c1cnc2ccccn12)c1ncc(C(=O)Nc2cc(C(F)(F)F)c(Cl)cn2)s1         pEC50        ≥ 7.00
3  C[C@@H](NC(=O)c1cc2c(cn1)ncn2C1CN(S(=O)(=O)CC(F)(F)F)C1)c1cnc(Nc2ccc(C(F)(F)F)cc2)cn1         pEC50  6.00 to 7.00

# pEC50 of CCn1cnc2cnc(C(=O)NC(C)c3cnc(Nc4ccc(Cl)c(C(F)(F)F)c4)cn3)cc21 (stereo not shown) = 6.00 to 7.00

# compound C[C@@H](NC(=O)c1ccc(N)cc1)c1ncc(C(=O)Nc2cc(C(F)(F)F)c(Cl)cn2)s1 ; its pEC50 = 5.00 to 6.00

Per the records, this compound ( CC(NC(=O)c1cc2c(cn1)ncn2C)c1cnc(Nc2cnc(C(C)(C)C)nc2)s1 (stereo not shown) ) has pEC50 equal to ≥ 7.00

====

In this section we review reported EC50 values for a set of compounds.
# System: phospho-ERK in melanoma derived WM-266-4 cells
# test description: Mechanistic cellular assay for Raf kinase activity (phospho-ERK, Bio-Plex)
# Type: cell-based
# measurement context: Homo sapiens, treated 1-2 hr at 37° C., serum free medium, read-out: pERK EC50

Bench note, phospho-ERK in melanoma derived WM-266-4 cells: Cc1[nH]ncc1C(=O)N[C@H](C)c1ncc(C(=O)Nc2cc(C(F)(F)F)c(Cl)cn2)s1 , EC50 reads 100 to 1000 nM

Summary line: C[C@@H](NC(=O)c1cc2ncn(C)c2cn1)c1ncc(C(=O)Nc2cc(C(F)(F)F)c(Cl)cn2)s1 , phospho-ERK in melanoma derived WM-266-4 cells, reported EC50 = 100 to 1000 nM

Reported EC50 (phospho-ERK in melanoma derived WM-266-4 cells) for entry CC(NC(=O)c1cnn2cc(-c3cncnc3)ccc12)c1ncc(C(=O)Nc2cc(C(F)(F)F)c(Cl)cn2)s1 (centres unmarked) is ≤ 100 nM

====

# System: phospho-ERK in melanoma derived WM-266-4 cells
# test description: Mechanistic cellular assay for Raf kinase activity (phospho-ERK, Bio-Plex)
# Format: cell-based
# measurement context: Homo sapiens, treated 1-2 hr at 37° C., serum free medium, read-out: pERK EC50
measure name: EC50

>>> print(df.to_string())
                                   compound                                    target  measure_name       result
0  CC(NC(=O)c1cc2c(cn1)nc(N)n2C)c1cnc(Nc2ccc(C(F)(F)F)nc2)s1 (stereo not shown)  phospho-ERK in melanoma derived WM-266-4 cells          EC50  0.1 to 1 µM
1  CC(NC(=O)c1cnn(C)c1)c1cnc(Nc2ccc(C(F)(F)F)cc2)s1 (stereo not shown)  phospho-ERK in melanoma derived WM-266-4 cells          EC50   1 to 10 µM

Record summary for CC(NC(=O)c1ccc2nc(N)sc2c1)c1cnc(Nc2ccc(C(F)(F)F)cc2)s1 (stereo not shown) : reported EC50 = 0.1 to 1 µM

Measured EC50, CC(NC(=O)c1cc2scnc2cn1)c1cnc(Nc2ccc(C(F)(F)F)cc2)s1 (stereo not shown) : ≤ 0.1 µM

====

# System: phospho-ERK in melanoma derived WM-266-4 cells
# test description: Mechanistic cellular assay for Raf kinase activity (phospho-ERK, Bio-Plex)
# Format: cell-based
# measurement context: Homo sapiens, treated 1-2 hr at 37° C., serum free medium, read-out: pERK EC50
pEC50: −log10 of the molar value.
measure name: pEC50

# example entries with known answers
                                   molecule  measure_name        result
0  CC(NC(=O)c1ccc2ncsc2c1)c1cnc(Nc2ccc(C(F)(F)F)cc2)s1 (stereo not shown)         pEC50  5.00 to 6.00
1  COCCn1c(C(=O)N[C@H](C)c2ncc(C(=O)Nc3cc(C(F)(F)F)c(Cl)cn3)s2)cnc1C         pEC50        ≥ 7.00
2  CC(NC(=O)c1cc2c(cn1)ncn2C)c1ccc(Nc2ccc(C(F)(F)F)cc2)nc1 (stereo not shown)         pEC50  6.00 to 7.00
3  CC(NC(=O)c1cnn2cc(-c3ccncc3)ccc12)c1ncc(C(=O)Nc2cc(C(F)(F)F)c(Cl)cn2)s1 (stereo not shown)         pEC50        ≥ 7.00
4  Cc1cn(-c2cncc(C(=O)NC(C)c3ncc(C(=O)Nc4cc(C(F)(F)F)c(Cl)cn4)s3)c2)cn1 (stereo not shown)         pEC50  5.00 to 6.00
5  CC(NC(=O)c1cc2c(cn1)ncn2C)c1cnc(Nc2cc(CN(C)C)cc(C(F)(F)F)c2)s1 (stereo not shown)         pEC50  5.00 to 6.00

Consider the record given below.
Sample CC(NC(=O)c1cc2c(cn1)ncn2C1CNC1)c1cnc(Nc2ccc(C(F)(F)F)cc2)cn1 (stereo not shown) ; pEC50 observed: 6.00 to 7.00
